# experimental.system: T1, human PD-1 dimer (human PD-1-mFc or human PD-1-hFc) (human, UniProt Q15116 25-170)
# T1 construct: also called hPD-1-mFc; hPD1-hFc
# T1 sequence (Q15116 25-170 C93S): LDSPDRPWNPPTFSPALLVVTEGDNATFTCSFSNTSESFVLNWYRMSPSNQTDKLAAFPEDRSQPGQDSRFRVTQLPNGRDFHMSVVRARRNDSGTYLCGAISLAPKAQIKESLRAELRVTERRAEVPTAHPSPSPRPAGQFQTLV
# test.method.notes: SPR, mAb captured, 37C;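 also: Real-time Biacore biosensor, PD-1 dimer flowed over anti-PD-1 antibody surface, rate constants fitted to a 1:1 model, KD derived as kd/ka and t½ as ln2/(60·kd)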
Exercise: state measured kon for each of the binders provided.

Value of measured kon for the entry H1M7800N (antibody, mouse IgG1, V domains shown, Human variable regions, mouse IgG1 Fc) VH: EVQLVESGGGLVQPGGSLRLSCAASGFTVSNNYMSWVRQAPGKGLEWVSVIYSGGFTYYTDSVKGRFTISRHNSKNTLYLQMNSLRAEDTAVYYCARYYYDTSDYWTFFDYWGQGTLVTVSS VL: EIVMTQSPATLSVSPGERATLSCRASQSVSSNLAWYQQKPGQAPRLLIYGASTRATGIPARFSGSGSGTEFTLTISSLQSGDFAVYYCQQYNNWPLTFGGGTKVEIN : 400000 M⁻¹ s⁻¹

Value of measured kon for the entry H1M7799N (antibody, mouse IgG1, V domains shown, Human variable regions, mouse IgG1 Fc) VH: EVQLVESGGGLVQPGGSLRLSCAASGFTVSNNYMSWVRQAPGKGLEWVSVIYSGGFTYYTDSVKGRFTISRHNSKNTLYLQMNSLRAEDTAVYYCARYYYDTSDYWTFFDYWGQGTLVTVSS VL: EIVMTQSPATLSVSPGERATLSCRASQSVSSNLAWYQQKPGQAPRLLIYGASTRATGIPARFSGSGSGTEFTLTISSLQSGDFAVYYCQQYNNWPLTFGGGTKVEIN : 441000 M⁻¹ s⁻¹

Kindly consider the entry below.
Value of measured kon for the entry H2aM7796N (antibody, mouse IgG2a, V domains shown, Human variable regions, mouse IgG2a Fc; also called H2M7796N) VH: QVQLVESGGGVVQPGRSLRLSCAASGFTFSSYGMHWVRQAPGKGLEWVAIIWSDGDSEYNLDSVKGRFTISRDNSKNTLYLQMNSLRVEDSAVYYCARDRDLEDIWGQGTMVTVSS VL: DIQMTQSPSSLSASVGDRVTITCRASQGIRNDLGWYQQKPGKAPKRLIYAASNLQSGVPSRFSGSGSGTEFTLTISSLQPEDFATYYCLQHNSYPLTFGGGTKVEIK : 22100 M⁻¹ s⁻¹
